src = paper PMC8260448

- measured_on: thrombin (UniProt P00734;P00734 315-363;364-622)
- measurement_notes: fluorescence polarization
property: pKd
Numbers only, as −log10 of the molar value.

# binder GGTTGGTGTGGTTGG (structured_DNA, T3 replaced by 5-ethynyl-dU clicked to inactivated N-acyl sulfonamide 2b) [TBA(3)-2b] ; its pKd = 6.40
